Tested on: Avian myeloblastosis virus
Experiment: Inhibition of AMV reverse transcriptase activity assessed as incorporation of dGMP in poly(rC)-oligo(dG) at 100 uM
Set-up: scale not given: the % may be the effect or the level left
Rule: class 1 for Activity not less than 10%, class 0 for anything less.

{"columns": ["Compound string", "Assigned class"],
 "data": [
  ["O=c1oc2c(O)c(O)cc3c(=O)oc4c(O)c(O)cc1c4c23", "class 1"],
  ["O=C(O[C@@H]1O[C@@H]2COC(=O)c3cc(O)c(O)c(O)c3-c3c(cc(O)c(O)c3O)C(=O)O[C@H]([C@H]1O)[C@@H]2O)c1cc(O)c(O)c(O)c1", "class 1"],
  ["O=C(O[C@@H]1O[C@@H]2COC(=O)c3cc(Oc4c(C(=O)O[C@@H]5O[C@@H]6COC(=O)c7cc(O)c(O)c(O)c7-c7c(cc(O)c(O)c7O)C(=O)O[C@H]6[C@H](OC(=O)c6cc(O)c(O)c(O)c6)[C@H]5OC(=O)c5cc(O)c(O)c(O)c5)cc(O)c(O)c4O)c(O)c(O)c3-c3c(cc(O)c(O)c3O)C(=O)O[C@H]2[C@H](OC(=O)c2cc(O)c(O)c(O)c2)[C@H]1OC(=O)c1cc(O)c(O)c(O)c1)c1cc(O)c(O)c(O)c1", "class 1"],
  ["O=C(O[C@H]1O[C@@H]2COC(=O)c3cc(O)c(O)c(O)c3-c3c(cc(O)c(O)c3O)C(=O)O[C@H]2[C@@H]2OC(=O)c3cc(O)c(O)c(O)c3-c3c(cc(O)c(O)c3O)C(=O)O[C@@H]12)c1cc(O)c(O)c(Oc2c(C(=O)O[C@H]3O[C@@H]4COC(=O)c5cc(O)c(O)c(O)c5-c5c(cc(O)c(O)c5O)C(=O)O[C@H]4[C@@H]4OC(=O)c5cc(O)c(O)c(O)c5-c5c(cc(O)c(O)c5O)C(=O)O[C@@H]34)cc(O)c(O)c2O)c1", "class 0"],
  ["O=C(O)C[C@@H]1C(=O)O[C@H]2[C@@H]3OC(=O)c4cc(O)c(O)c(O)c4-c4c(cc(O)c(O)c4O)C(=O)OC[C@H]2O[C@@H](OC(=O)c2cc(O)c(O)c(O)c2)[C@@H]3OC(=O)c2cc(O)c(O)c3c2[C@H]1[C@H](O)C(=O)O3", "class 1"],
  ["O=C1OC[C@H]2O[C@@H](O)[C@H](O)[C@@H](O)[C@@H]2OC(=O)c2cc(O)c(O)c(O)c2-c2c(O)c(O)c3oc(=O)c4c(c(O)c(O)c5oc(=O)c2c3c54)-c2c1cc(O)c(O)c2O", "class 1"],
  ["COc1cc2c[n+](C)c3c4cc5c(cc4ccc3c2cc1OC)OCO5", "class 0"]
]}

* * *

Test system: Avian myeloblastosis virus
Test: Inhibition of AMV reverse transcriptase activity assessed as incorporation of dGMP in poly(rC)-oligo(dG) at 0.1 uM
Design: scale not given: the % may be the effect or the level left
Endpoint label: Activity (%)

{"columns": ["Compound string", "Unit of measurement", "Numeric result"],
 "data": [
  ["O=C(O)C[C@@H]1C(=O)O[C@H]2[C@@H]3OC(=O)c4cc(O)c(O)c(O)c4-c4c(cc(O)c(O)c4O)C(=O)OC[C@H]2O[C@@H](OC(=O)c2cc(O)c(O)c(O)c2)[C@@H]3OC(=O)c2cc(O)c(O)c3c2[C@H]1[C@H](O)C(=O)O3", "%", 94],
  ["O=C(O[C@@H]1O[C@@H]2COC(=O)c3cc(Oc4c(C(=O)O[C@@H]5O[C@@H]6COC(=O)c7cc(O)c(O)c(O)c7-c7c(cc(O)c(O)c7O)C(=O)O[C@H]6[C@H](OC(=O)c6cc(O)c(O)c(O)c6)[C@H]5OC(=O)c5cc(O)c(O)c(O)c5)cc(O)c(O)c4O)c(O)c(O)c3-c3c(cc(O)c(O)c3O)C(=O)O[C@H]2[C@H](OC(=O)c2cc(O)c(O)c(O)c2)[C@H]1OC(=O)c1cc(O)c(O)c(O)c1)c1cc(O)c(O)c(O)c1", "%", 111],
  ["O=C(OC[C@H]1O[C@@H](OC(=O)c2cc(O)c(O)c(O)c2)[C@H](OC(=O)c2cc(O)c(O)c(O)c2)[C@@H](OC(=O)c2cc(O)c(O)c(O)c2)[C@@H]1OC(=O)c1cc(O)c(O)c(O)c1)c1cc(O)c(O)c(O)c1", "%", 80],
  ["O=c1oc2c(O)c(O)cc3c(=O)oc4c(O)c(O)cc1c4c23", "%", 71],
  ["Oc1cc(O)c2c(c1)O[C@H](c1ccc(O)c(O)c1)[C@H](O)[C@H]2c1c(O)cc(O)c2c1O[C@H](c1ccc(O)c(O)c1)[C@H](O)C2", "%", 85],
  ["O=C(O)c1cc(O)c(O)c(O)c1", "%", 122],
  ["O=C(O[C@@H]1O[C@@H]2COC(=O)c3cc(O)c(O)c(O)c3-c3c(cc(O)c(O)c3O)C(=O)O[C@H]([C@H]1O)[C@@H]2O)c1cc(O)c(O)c(O)c1", "%", 92],
  ["O=C1OC[C@H]2O[C@@H](O)[C@H](O)[C@@H](O)[C@@H]2OC(=O)c2cc(O)c(O)c(O)c2-c2c(O)c(O)c3oc(=O)c4c(c(O)c(O)c5oc(=O)c2c3c54)-c2c1cc(O)c(O)c2O", "%", 105],
  ["COc1cc2c[n+](C)c3c4cc5c(cc4ccc3c2cc1OC)OCO5", "%", 116],
  ["O=C1O[C@@H]2[C@@H](OC(=O)c3cc(O)c(O)c(O)c3-c3c1cc(O)c(O)c3O)[C@H](O)O[C@@H]1COC(=O)c3cc(O)c(O)c(O)c3-c3c(O)c(O)c4oc(=O)c5c(c(O)c(O)c6oc(=O)c3c4c65)-c3c(cc(O)c(O)c3O)C(=O)O[C@@H]21", "%", 85]
]}
